Test system: NCI-H322M lung
Test: NCI-60 one-dose screen, 48 h
Conditions: 10 µM unless noted
Compounds without any hit were thinned out: in the full panel of roughly 83,000, 20% have a hit. The source made the active and inactive calls. Rule for the calls: active = growth percent below 10; inactive = the rest.
The categories you may choose from are 1 for active, 0 for inactive

Use these answered entries as a reference point.
>>> assigned_category("N#Cc1cc(-c2ccnc(Nc3ccc(N4CCN(C5COC5)CC4)cc3)n2)ccc1N1CCCC1")
0
>>> assigned_category("O=C(c1ccc(Cl)cc1)C1[C@H](c2ccccc2Cl)[C@@H](c2ccccc2)NC12C(=O)Nc1ccc(Br)cc12 (some centres not stated)")
1

Tell me the recorded outcome of this test for COc1cc(C=O)ccc1OC(=O)c1cc(-c2ccc(C)cc2)n(-c2ccc(S(C)(=O)=O)cc2)n1 .
0

Tell me the recorded outcome of this test for COc1ccc(-c2cc(-c3cc(C(C)C)c(O)cc3C)nn2-c2ccc(S(N)(=O)=O)cc2)cc1 .
0

Tell me the recorded outcome of this test for Cc1ccc(C(C)C)cc1Oc1cccc(-c2c(-c3ccc(C(F)(F)F)cc3)ncn2C2CCNCC2)n1 .
1

----------
Test system: OVCAR-3 ovarian
Assay: NCI-60 one-dose screen, 48 h (100 = growth as untreated, 0 = no growth, -100 = all killed)
Settings: 10 µM unless noted
Compounds without any hit were thinned out: in the full panel of roughly 83,000, 20% have a hit. Active and inactive are the calls of the source. The calls were made as follows: active = growth percent below 10; inactive = the rest.
Assignment: determine reported growth for the given compounds.

See these solved cases before continuing.
>>> reported("O=C(CSc1nnc(-c2ccc(-c3nc4ccccc4[nH]3)cc2)o1)Nc1ccc(Br)cc1")
"34.2% (inactive)"
>>> reported("COc1ccc(-c2nc3ccccc3n2CC(=O)N=Nc2c(O)[nH]c3ccc(Br)cc23)cc1")
"48.7% (inactive)"
>>> reported("Fc1ccc(F)c(CNc2nc(SCCN3CCOCC3)nc3c2cnn3CC(Cl)c2ccc(Br)cc2)c1 (stereo unspecified)")
"45.2% (inactive)"
>>> reported("O=C(Nc1ccc(-c2ccc3c(c2)NC(=O)/C3=C\\c2ccc[nH]2)cc1)Nc1ccc(Cl)c(C(F)(F)F)c1")
"29.1% (inactive)"
>>> reported("O=C(NC(=S)N1CCN(c2ncnc3c2cnn3-c2ccccc2)CC1)c1ccc(F)cc1")
"113% (inactive)"
>>> reported("COc1ccc(-c2cc(C(=O)N=Nc3c(O)[nH]c4ccc(Cl)cc34)c3ccccc3n2)cc1OC")
"118% (inactive)"

Respectfully, I request growth for each entry included below.
1. COc1ccc(SC2c3cc(OC)ccc3Oc3nc(N)c(C#N)c(N)c32)cc1 (stereo unspecified)
2. O=C(Cn1c(-c2ccccc2)nc2ccccc21)N=Nc1c(O)[nH]c2ccc(Cl)cc12
3. COc1ccc2ccccc2c1/C=C1\SC(=Nc2ccc(O)cc2)NC1=O
4. N#C/C(=C1/C(=O)Nc2ccccc21)c1nnc(NC(=O)c2ccc(-n3c(=O)[nH]c4ccccc4c3=O)cc2)s1
5. CC1=C(C(=O)OCc2ccccc2)C(c2ccc(N(C)C)cc2)n2c(nc3ccccc32)N1 (stereo unspecified)

1. 98.4% (inactive)
2. 1.02% (active)
3. 35.5% (inactive)
4. 25.6% (inactive)
5. 92.6% (inactive)

----------
Test system: A549/ATCC NSCLC
Experiment: NCI-60 one-dose screen, 48 h
Settings: 10 µM unless noted
The panel holds about 83,000 compounds, 20% with a hit somewhere; the sample as a whole holds those more often. The source made the active and inactive calls. How the source made its calls: active means growth percent below 10; inactive means the rest.
The categories you may choose from are active, inactive

Use these answered entries as a reference point.
>>> assigned_category("CN1CCN(C(=O)Oc2cc3c(c4ccccc24)[C@H](CCl)CN3C(=O)c2cc3cc(OCCCN4CCC4)ccc3[nH]2)[C@@H]2CSSC[C@H]21")
"active"
>>> assigned_category("COc1ccc2[nH]c(O)c(N=NC(=O)c3ccc4nc(-c5ccc(Cl)cc5)[nH]c4c3)c2c1")
"inactive"
>>> assigned_category("O=C1/C(=C/c2cnc(-c3ccccc3)s2)SC(=S)N1Cc1ccc2c(c1)OCO2")
"inactive"
>>> assigned_category("Cc1cccc(/C=C/c2ccc(NC(=S)NCCCCN(C)C)cc2)c1")
"active"
>>> assigned_category("COc1ccc2[nH]c(O)c(N=Nc3nc(-c4ccc(Cl)cc4)cs3)c2c1")
"active"

Tell me the recorded outcome of this test for c1n[nH]cc1-c1nc2ccc3[nH]ncc3c2c2c1CC1(CCOCC1)CC2 .
inactive

Tell me the recorded outcome of this test for Cc1ccc(-c2cc(-c3ccccc3)[nH]c(=O)c2C#N)cc1 .
inactive

Tell me the recorded outcome of this test for CN1C(=O)C(O)(CC(=O)c2cc3ccccc3oc2=O)c2ccccc21 (stereo not drawn) .
inactive

Tell me the recorded outcome of this test for CCCCCCCOc1ccc(S(=O)(=O)Nc2ccc(C)c(F)c2C(=O)O)cc1 .
inactive

----------
Test system: MALME-3M melanoma
Test: NCI-60 one-dose screen, 48 h
Conditions: 10 µM unless noted
Compounds without any hit were thinned out: in the full panel of roughly 83,000, 20% have a hit. Calls of active or inactive are those of the source. How the source made its calls: active means growth percent below 10; inactive means the rest.
The categories you may choose from are active, inactive

>>> assigned_category("Nc1cc(-c2c[nH]c3ccc(Cl)cc23)nc2cc(-c3c[nH]c4ccccc34)nn12")
"active"

Tell me the recorded outcome of this test for COc1ccc2[nH]c(O)c(N=NC(=O)c3ccc4nc(-c5ccc(Cl)cc5)[nH]c4c3)c2c1 .
inactive

Tell me the recorded outcome of this test for COc1cccc(/C=C/c2nc3ccccc3c(=O)n2CC(=O)Nc2ccccc2)c1 .
inactive

Tell me the recorded outcome of this test for Clc1ccccc1Nc1nnc(-c2c[nH]c3ccccc23)o1 .
inactive

Tell me the recorded outcome of this test for O=C(CSc1nnc(-c2ccc(-c3nc4ccccc4[nH]3)cc2)o1)Nc1ccc(Br)cc1 .
inactive

Tell me the recorded outcome of this test for COc1ccc(N=Nc2c(N)nn3c(N)c(C#N)c(-c4ccc(C)cc4)nc23)cc1 .
inactive

Tell me the recorded outcome of this test for CCc1ccccc1NC(=O)N/C(N)=N/c1nc2ccccc2s1 .
active

Tell me the recorded outcome of this test for Cc1ccc(-c2cc(-c3ccccc3)[nH]c(=O)c2C#N)cc1 .
inactive

----------
Assignment: determine reported growth for the given molecules.
System: SNB-19 CNS
Assay: NCI-60 one-dose screen, 48 h (100 = growth as untreated, 0 = no growth, -100 = all killed)
Conditions: 10 µM unless noted
Compounds without any hit were thinned out: in the full panel of roughly 83,000, 20% have a hit.
Numbers only, in %.

See these solved cases before continuing.
>>> reported("C/C(=N\\Nc1ccc(S(N)(=O)=O)cc1)c1cnn(-c2cc(=O)[nH]c3ccc(Br)cc23)c1C")
46
>>> reported("COc1ccc(-c2cc(-c3cc(OC)c(OC)c(OC)c3)[nH]c(=O)c2C#N)cc1")
8.18
>>> reported("COc1cc(/C=C/C(=O)c2cnn(-c3cc(=O)[nH]c4ccc(C)cc34)c2C)cc(OC)c1OC")
18.7
>>> reported("O=CNc1ccc(-n2cnc3cc(-c4ccc(O)cc4)ccc32)cc1")
88.5
>>> reported("CC[C@@]12CC(C(=O)OC)=C3Nc4cc5c(cc4[C@@]34CCN(C[C@H]3O[C@H]31)[C@@H]24)[C@@H]1[C@H](O5)[C@@H](O)[C@@]2(CC)CC(C(=O)OC)=C3Nc4cc(O)ccc4[C@@]34CCN1[C@@H]24")
-43.8

As a next step, examine the molecule that follows.
Recorded growth for Nc1ccc(-c2ccc3ncnc(N4CCc5cc(F)c(Cl)cc54)c3c2)cn1 , please?
39.3

----------
Assignment: determine reported growth for the given molecules.
Tested on: NCI-H522 lung
Test: NCI-60 one-dose screen, 48 h (100 = growth as untreated, 0 = no growth, -100 = all killed)
Conditions: 10 µM unless noted
Description: Growth inhibition of the NCI-H522 human Non-Small Cell Lung tumor cell line is measured as a screen for anti-cancer activity. Cells are grown in 96 well plates and exposed to the test compound for 48 hours. Compounds are tested at a single concentration, which is 10^-5 M for most compounds. The reported endpoint is percent growth (GI% or GIPRCNT), where numbers from 0 - 100% represent growth inhibition, and numbers from -100% - 0 represent cell death. […]
About 83,000 compounds went through this panel and 20% of them were active in at least one assay; those are over-represented in the sample as a whole.
Give bare numbers, in %.

See these solved cases before continuing.
>>> reported("CCCCCCCCCCCCCCCCCC(=O)Nc1ccc(OC)cc1")
88.2
>>> reported("COc1ccc(/C=C/c2nc3ccccc3c(=O)n2CC(=O)Nc2ccccc2)cc1")
89.2
>>> reported("Cn1ncc2c(N)nc(Oc3ccccc3-c3ccccc3)nc21")
22.2

As a next step, examine the molecule that follows.
Recorded growth for Cc1ccc2nc(SCc3ccccc3F)n(-c3ccccc3)c(=O)c2c1 , please?
87.8

----------
Tested on: HCT-15 colon
Experiment: NCI-60 one-dose screen, 48 h (100 = growth as untreated, 0 = no growth, -100 = all killed)
Conditions: 10 µM unless noted
The panel holds about 83,000 compounds, 20% with a hit somewhere; the sample as a whole holds those more often.
// classify(record): look up growth in ranges lower segment: < 30%; middle segment: ≥ 30% and < 70%; upper segment: ≥ 70%

Use these answered entries as a reference point.
>>> assigned_category("CC1=C(C(=O)OC(C)C)C(c2ccc(O)cc2)NC(=O)N1 (stereo not drawn)")
"upper segment"
>>> assigned_category("S=C(NCCc1ccccc1)Nc1ccc(OCc2nc3ccc(Cl)cc3[nH]2)cc1")
"lower segment"
>>> assigned_category("COc1ccc(-n2c(NC(=O)N3CCN(C)CC3)c(C#N)c3ccccc32)cc1")
"middle segment"
>>> assigned_category("O=C(N/N=C/c1occc1Br)c1[nH]c2ccc(Br)cc2c1-c1ccccc1")
"lower segment"

Consider Cc1cccc(NCC(=O)N2CCN(c3ncnc4c3cnn4-c3ccccc3)CC2)c1 . To which growth class does it belong?
upper segment

Consider COc1ccc(C(=O)C[n+]2cccc3c4ccccc4ccc32)cc1 . To which growth class does it belong?
upper segment

Consider COC(=O)c1cc(C(=O)CBr)n2c1ccc1c3ccccc3ccc12 . To which growth class does it belong?
middle segment

Consider CC(C)C[C@H](NC(=O)CNC(=O)C[C@H]1O[C@@H]2OC3(C)CC[C@H]4[C@H](C)CC[C@@H]([C@H]1C)[C@@]24O3)B(O)O . To which growth class does it belong?
middle segment

Consider Clc1ccc(-c2nc3ccc(-c4nnc(SCc5ccccc5)o4)cc3[nH]2)cc1 . To which growth class does it belong?
lower segment

Consider COc1ccc(-c2cc(C)nc3[nH]c(=O)sc23)cc1 . To which growth class does it belong?
upper segment

Consider CCOC(=O)c1ccc(NC(=S)NC(=O)c2ccc(NC(=O)C(C)C)cc2OC)cc1 . To which growth class does it belong?
lower segment

Consider COc1ccc(N=Nc2c(N)nn3c(-c4cc5ccccc5oc4=O)ccnc23)cc1 . To which growth class does it belong?
middle segment

Consider Cc1ccc2nc(NC(=O)Nc3cccc(Cl)c3)sc2c1 . To which growth class does it belong?
upper segment

Consider C#CCCCNCCNc1ccnc2cc(Cl)ccc12 . To which growth class does it belong?
middle segment

Consider N#Cc1c(NC(=O)N2CCOCC2)n(-c2ccc(OC(F)(F)F)cc2)c2cc(F)ccc12 . To which growth class does it belong?
upper segment

Consider COc1ccccc1NC(=O)N/N=C/c1c[nH]c2ccccc12 . To which growth class does it belong?
lower segment

Consider COc1ccc2c(c1)c(-c1cc(N)n3nc(-c4c[nH]c5ccccc45)cc3n1)cn2C . To which growth class does it belong?
lower segment

Consider COc1ccc2oc(=O)c(-c3csc(N/N=C(\C)c4cc(OC)c(OC)c(OC)c4)n3)cc2c1 . To which growth class does it belong?
upper segment

Consider O=C(N=Nc1c(O)[nH]c2ccc(Cl)cc12)c1ccc2nc(-c3ccc(Cl)cc3)[nH]c2c1 . To which growth class does it belong?
upper segment
